Attribution: ChEMBL document CHEMBL3988442

Percent Effect: recorded values
System: Mycobacterium tuberculosis
Experiment: Cornell - Phenotypic assay to identify agents that inhibit growth of Mycobacterium tuberculosis
Assay type: functional
Set-up: scale not given: direction of the effect not stated beside the values
Details: 10 mM as filed; unlikely as a test dose
About 900 (1.7%) of roughly 53,000 compounds showed an effect of 50% or more. This is one part of a sample in which strong results are shown more often than they occur.
parameter: Percent Effect (%)

>>> print(df.to_string())
                                    compound       parameter  measured_result
 0  CCS(=O)(=O)N1C[C@@H](C(=O)NC(C)C)[C@@]2(Cc3ccccc3C(=O)N2)C1  Percent Effect            50.91
 1             COC(=O)COn1c(OC)nc2ccccc2c1=O  Percent Effect            32.68
 2  CC(C)CNC(=O)CNC(=O)c1nc(Cc2c(Cl)cccc2Cl)no1  Percent Effect            50.66
 3  CC(C)CN1CCC(c2nc3ccc(NC(C)C)cn3n2)CC1.O=C(O)C(F)(F)F.O=C(O)C(F)(F)F  Percent Effect            2.767
 4      CCc1ccccc1OC1CN(C(=O)c2ccnc(OC)c2)C1  Percent Effect            66.55
 5  CCc1nc2ccccc2c(=O)n1CC1(O)CCN(CC(=O)OC)CC1  Percent Effect            13.86
 6             COC(=O)COn1c(SC)nc2ccccc2c1=O  Percent Effect            75.88
 7         COC(=O)CNC(=O)CCCn1cnc2ccccc2c1=O  Percent Effect            3.303
 8  Cc1ccc(-c2nc(CN3CCC(N4CCNC4=O)CC3)co2)cc1  Percent Effect           0.5995
 9         COC(=O)COn1c(SC(C)C)nc2ccccc2c1=O  Percent Effect            75.74
10  CCOc1cncc(N2CCCC2c2nnc3n2CCCCC3)n1 (stereo not given)  Percent Effect            14.34
11  C[C@@H](O)CNC(=O)c1nc(Cc2c(Cl)cccc2Cl)no1  Percent Effect            33.25
12  COc1ccc(SCC2CNc3nc4ccccc4c(=O)n32)cc1 (stereo not given)  Percent Effect            44.86
13  CN1C[C@@H](C(=O)NCC(F)(F)F)[C@@]2(CCc3ccccc3C(=O)N2)C1  Percent Effect            4.729
14       COc1cc2ncn(Cc3ncc[nH]3)c(=O)c2cc1OC  Percent Effect             6.69

---

System: Mycobacterium tuberculosis
Assay: Cornell - Phenotypic assay to identify agents that inhibit growth of Mycobacterium tuberculosis
Assay type: functional
Design: scale not given: direction of the effect not stated beside the values
Details: 10 mM as filed; unlikely as a test dose
The whole screen tested about 53,000 compounds, of which about 900 (1.7%) showed an effect of 50% or more. The sample as a whole holds a higher share of strong results than the screen did.
Percent Effect: recorded values
parameter: Percent Effect (%)

>>> df
                                    compound       parameter  unit_info  measured_result
 0  CCCN(C(=O)c1ccncc1)c1nc2c(s1)CCc1c-2cnn1C  Percent Effect          %               54
 1  Cc1cnn(CC2CCCN2Cc2noc(-c3ccccc3)n2)c1 (configuration not stated)  Percent Effect          %            10.45
 2  Cc1cnn(CC2CN(c3cnc4ccccc4n3)CCO2)c1 (configuration not stated)  Percent Effect          %            106.1
 3  CC(Oc1ccc2c(c1)OCO2)C(=O)N1CCC(c2ncc[nH]2)CC1 (configuration not stated)  Percent Effect          %           -2.052
 4  Cc1noc(CCCNC(=O)CNC(=O)c2cc3ccccc3[nH]2)n1  Percent Effect          %            17.25
 5  O=C1CCC(c2nc(C3CCN(C(=O)C4CC4)CC3)no2)N1 (configuration not stated)  Percent Effect          %            13.14
 6  CN(C)CC1CN(c2cnc3ccccc3n2)CCO1 (configuration not stated)  Percent Effect          %           -10.68
 7  O=C(NCC(O)c1ccsc1)c1sccc1OC(F)F (configuration not stated)  Percent Effect          %            14.09
 8  Cc1cnn(CC2CCCN2CCc2nc3ccccc3c(=O)[nH]2)c1 (configuration not stated)  Percent Effect          %            106.5
 9     Cc1cc(NCCS(C)(=O)=O)nc2cc3c(cc12)CCC3  Percent Effect          %            21.34
10  Cc1nc([C@@H]2C[C@@H]3CCN(C(=O)Cc4ccsc4)C[C@H]3O2)no1  Percent Effect          %          -0.3005
11  COCc1nc(C(=O)OCC2CCN(c3ccccc3)C2)cs1 (configuration not stated)  Percent Effect          %             17.1
12  O=C(O)c1csc(S(=O)(=O)Nc2c(F)cccc2-n2cccn2)c1  Percent Effect          %           -80.25
13           CN(CCc1ccncc1)c1cnn(C)c(=O)c1Br  Percent Effect          %            -2.68
14        CCCC(=O)NCCc1cc(NC)nc(-c2ccccn2)n1  Percent Effect          %            8.218
15  Cc1nc([C@@H]2C[C@@H]3CCN(C(=O)Cc4cccs4)C[C@H]3O2)no1  Percent Effect          %            53.11
16  O=C(Nc1ccccn1)NC(CCCO)c1ccccc1 (configuration not stated)  Percent Effect          %           -24.69
17     CNc1cc(CCNC(=O)CC(C)C)nc(-c2ccccn2)n1  Percent Effect          %            53.37
18  O=C(NCCc1ccccc1)NCC(O)c1cccs1 (configuration not stated)  Percent Effect          %            16.84
19  Cc1[nH]nc2ncc(C(=O)N3CCCC3c3noc(C(C)C)n3)cc12 (configuration not stated)  Percent Effect          %             24.5
20  O=S(=O)(c1ccccc1)N1CCC2(CCCN2Cc2cccc(F)c2)C1 (configuration not stated)  Percent Effect          %            5.302
21  CCOc1ccccc1CCNC(=O)NCC(O)c1ccsc1 (configuration not stated)  Percent Effect          %            26.35
22  CCCN1C[C@H]2CC[C@@H]1CN(Cc1ccc(Cn3cccn3)cc1)C2  Percent Effect          %            -2.42
23  CCCN(C(=O)c1cccnc1)c1nc2c(s1)CCc1c-2cnn1C  Percent Effect          %            30.71
24  CO[C@@H]1CCN(C(=O)c2cc(C)on2)C[C@@H]1Cc1ccccc1  Percent Effect          %           -19.48
25  Cc1nc([C@@H]2C[C@@H]3CCN(C(=O)Cc4cccc(F)c4)C[C@H]3O2)no1  Percent Effect          %            16.61
26  Cc1ccc(CN2Cc3c(C(=O)N4CCN(C)CC4)nn(C)c3C2)s1.O=C(O)C(F)(F)F.O=C(O)C(F)(F)F.O=C(O)C(F)(F)F  Percent Effect          %           -2.835
